# testedSystem: KAT-5 (Homo sapiens (Human))
# Sequence (Q92993 other isoform, or with tags, fused parts or gaps): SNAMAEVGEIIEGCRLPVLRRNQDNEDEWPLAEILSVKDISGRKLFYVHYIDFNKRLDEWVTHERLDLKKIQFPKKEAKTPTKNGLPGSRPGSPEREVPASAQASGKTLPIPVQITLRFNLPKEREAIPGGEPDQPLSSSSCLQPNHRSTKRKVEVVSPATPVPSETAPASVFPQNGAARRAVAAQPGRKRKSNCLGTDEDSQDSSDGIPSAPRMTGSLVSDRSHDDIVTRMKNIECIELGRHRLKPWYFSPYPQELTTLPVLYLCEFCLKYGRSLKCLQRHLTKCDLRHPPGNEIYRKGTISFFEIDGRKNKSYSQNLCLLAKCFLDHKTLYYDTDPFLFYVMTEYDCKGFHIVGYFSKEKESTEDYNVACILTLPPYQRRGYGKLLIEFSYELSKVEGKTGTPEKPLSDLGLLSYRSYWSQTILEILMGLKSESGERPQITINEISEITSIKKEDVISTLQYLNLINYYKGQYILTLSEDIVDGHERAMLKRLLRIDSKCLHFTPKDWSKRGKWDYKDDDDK
# assayInfo: KAT-5 biochemical inhibition assay (SAMDI mass spectrometry)
endpoint: IC50

Some solved entries appear below for comparison.
                                   compound                  testedsystem  readoutvalue
0  CCn1cc(-c2cc(Cl)c(F)c(C(=O)NNS(=O)(=O)C3CCCCC3)c2)nc1C [Compound I-46]  KAT-5 (Homo sapiens (Human))   10 to 50 µM
1  COc1cnc(S(=O)(=O)NNC(=O)c2cc(-c3cn(C)cn3)cc(Cl)c2F)c(F)c1 [Compound I-468]  KAT-5 (Homo sapiens (Human))       < 10 µM
2  CCNC(=O)NC1CCCC(CS(=O)(=O)NNC(=O)c2cc(-c3cn(C)cn3)cc(Cl)c2F)C1 (stereo not shown) [Compound I-97]  KAT-5 (Homo sapiens (Human))       < 10 µM
3  Cn1cnc(-c2cc(Cl)c(F)c(C(=O)NNS(=O)(=O)c3cccc(O)n3)c2)c1 [Compound I-391]  KAT-5 (Homo sapiens (Human))       < 10 µM
4  Cn1cnc(-c2cc(Cl)c(F)c(C(=O)NNS(=O)(=O)c3cscn3)c2)c1 [Compound I-304]  KAT-5 (Homo sapiens (Human))       < 10 µM

Okay, here is my list. What is IC50 for each of these?
1. CCNC(=O)N[C@H]1CC[C@H](CS(=O)(=O)NNC(=O)c2cc(-c3cn(C)cn3)cc(Cl)c2F)CC1 [Compound I-109]
2. CC(C)NC(=O)N1CCCC(CS(=O)(=O)NNC(=O)c2cc(-c3cn(C)cn3)cc(Cl)c2F)C1 (stereo not shown) [Compound I-187]
3. CCNC(=O)N[C@H]1CCC[C@@H](CS(=O)(=O)NNC(=O)c2cc(-c3cn(C)cn3)cc(Cl)c2F)C1 [Compound I-287]

output:
1. < 10 µM
2. < 10 µM
3. < 10 µM

Okay, here is my list. What is IC50 for each of these?
1. COCCn1cnc(-c2cc(C)c(F)c(C(=O)NNS(=O)(=O)C3CCOCC3)c2)c1 [Compound I-138]
2. Cn1cnc(-c2cc(Cl)c(F)c(C(=O)NNS(=O)(=O)C[C@H]3CC[C@H](NC(=O)OC(C)(C)C)CC3)c2)c1 [Compound I-96]
3. Cn1cnc(-c2cc(Cl)c(F)c(C(=O)NNS(=O)(=O)C[C@@H]3C[C@H]4CC[C@@H]3O4)c2)c1 [Compound I-299]
4. Cn1cnc(-c2cc(Cl)c(Cl)c(C(=O)NNS(=O)(=O)CC3CCCCC3)c2)c1 [Compound I-144]
5. Cn1cnc(-c2cc(Cl)c(F)c(C(=O)NNS(=O)(=O)CC3CCN(C(N)=O)C3)c2)c1 (stereo not shown) [Compound I-205]
6. Cn1cnc(-c2cc(Cl)c(F)c(C(=O)NNS(=O)(=O)CCC3CCOCC3)c2)c1 [Compound I-244]

output:
1. 10 to 50 µM
2. < 10 µM
3. < 10 µM
4. > 100 µM
5. < 10 µM
6. < 10 µM

Okay, here is my list. What is IC50 for each of these?
1. Cn1cnc(-c2cc(Cl)c(F)c(C(=O)NNS(=O)(=O)CC3CCN(C(=O)NCCO)C3)c2)c1 (stereo not shown) [Compound I-228]
2. CC1CCCCC1CS(=O)(=O)NNC(=O)c1cc(-c2cn(C)cn2)cc(Cl)c1F (stereo not shown) [Compound I-335]
3. COCc1nc(-c2cc(Cl)c(F)c(C(=O)NNS(=O)(=O)CC3CCCCC3)c2)cn1C [Compound I-226]
4. COCCn1cc(S(=O)(=O)NNC(=O)c2cc(-c3cn(C)cn3)cc(Cl)c2F)cn1 [Compound I-212]
5. Cn1cnc(-c2cc(Cl)c(F)c(C(=O)NNS(=O)(=O)c3cnnn3C)c2)c1 [Compound I-71]
6. Cn1cnc(-c2cc(Cl)c(F)c(C(=O)NNS(=O)(=O)c3cccc(N)n3)c2)c1 [Compound I-392]
7. Cn1cnc(-c2cc(Cl)c(F)c(C(=O)NNS(=O)(=O)CC3CN(C(N)=O)C3)c2)c1 [Compound I-208]
8. Cn1cnc(-c2cc(Cl)c(F)c(C(=O)NNS(=O)(=O)CC3CN(C(=O)OC(C)(C)C)CCN3C(=O)OC(C)(C)C)c2)c1 (stereo not shown) [Compound I-469]

output:
1: < 10 µM; 2: < 10 µM; 3: < 10 µM; 4: 10 to 50 µM; 5: 10 to 50 µM; 6: < 10 µM; 7: 10 to 50 µM; 8: > 100 µM
